Tested on: 168753-222-R-J1-PDC complex spheroid viability;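 further: viability measured after seven days of drug exposure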
Assay: Anticancer human tumor 168753-222-R-J1-PDC patient-derived bladder carcinoma cell line growth inhibition [CLK]
Details: curve of first compound; second compound 1 µM
pIC50: −log10 of the molar value.
quantity-name: pIC50

compound | test-result
NC(=O)C(=Cn1cnc(-c2cc(C(F)(F)F)cc(C(F)(F)F)c2)n1)c1cncnc1 + CNC(=O)c1ccc(Nc2nc(OC3CCCC3)c3c(-c4ccc5nc(C)oc5c4)c[nH]c3n2)c(OC)c1 | 7.97
CCc1c2c(nc3ccc(O)cc13)-c1cc3c(c(=O)n1C2)COC(=O)[C@]3(O)CC + CNC(=O)c1ccc(Nc2nc(OC3CCCC3)c3c(-c4ccc5nc(C)oc5c4)c[nH]c3n2)c(OC)c1 | > 8.50
COc1ccc([C@@H](O)c2cc(-c3ncnc4cc(N5CCOCC5)ccc34)c(F)cc2Cl)nn1 + CNC(=O)c1ccc(Nc2nc(OC3CCCC3)c3c(-c4ccc5nc(C)oc5c4)c[nH]c3n2)c(OC)c1 | > 7.50
CC(C)CC(NC(=O)C(Cc1ccccc1)NC(=O)c1cnccn1)B(O)O (stereo not given) + CNC(=O)c1ccc(Nc2nc(OC3CCCC3)c3c(-c4ccc5nc(C)oc5c4)c[nH]c3n2)c(OC)c1 | > 9.02
CC(CO)NC(=O)c1cc(-c2ccc(Cl)cc2)nn(-c2cnn(C)c2)c1=O (stereo not given) + CN1CCN(c2cc(C(=O)Nc3cc4cc(-c5cnn(C)c5)ccc4cn3)ccn2)CC1 | > 7.50
C=CC(=O)N1CCN(c2nc(=O)n(-c3c(C)ccnc3C(C)C)c3nc(-c4c(O)cccc4F)c(F)cc23)C(C)C1 (stereo not given) + CN1CCN(c2cc(C(=O)Nc3cc4cc(-c5cnn(C)c5)ccc4cn3)ccn2)CC1 | > 7.50
O=c1[nH]cc(F)c(=O)[nH]1 + CNC(=O)c1ccc(Nc2nc(OC3CCCC3)c3c(-c4ccc5nc(C)oc5c4)c[nH]c3n2)c(OC)c1 | > 7.50
C#Cc1c(F)ccc2cc(O)cc(-c3ncc4c(N5CC6CCC(C5)N6)nc(OCC56CCCN5CC(F)C6)nc4c3F)c12 (stereo not given) + CN1CCN(c2cc(C(=O)Nc3cc4cc(-c5cnn(C)c5)ccc4cn3)ccn2)CC1 | > 7.50
COc1cccc2c1C(=O)c1c(O)c3c(c(O)c1C2=O)CC(O)(C(=O)CO)CC3OC1CC(N)C(O)C(C)O1 (stereo not given) + CN1CCN(c2cc(C(=O)Nc3cc4cc(-c5cnn(C)c5)ccc4cn3)ccn2)CC1 | > 7.50
COc1cccc2c1C(=O)c1c(O)c3c(c(O)c1C2=O)CC(O)(C(=O)CO)CC3OC1CC(N)C(O)C(C)O1 (stereo not given) + CNC(=O)c1ccc(Nc2nc(OC3CCCC3)c3c(-c4ccc5nc(C)oc5c4)c[nH]c3n2)c(OC)c1 | > 7.50
CCN1CCN(Cc2ccc(Nc3ncc(F)c(-c4cc(F)c5nc(C)n(C(C)C)c5c4)n3)nc2)CC1 + CNC(=O)c1ccc(Nc2nc(OC3CCCC3)c3c(-c4ccc5nc(C)oc5c4)c[nH]c3n2)c(OC)c1 | > 8.50
CC(=O)O[C@H]1C(=O)[C@@]2(C)[C@H]([C@H](OC(=O)c3ccccc3)[C@]3(O)C[C@H](OC(=O)[C@H](O)[C@@H](NC(=O)c4ccccc4)c4ccccc4)C(C)=C1C3(C)C)[C@]1(OC(C)=O)CO[C@@H]1C[C@@H]2O + CNC(=O)c1ccc(Nc2nc(OC3CCCC3)c3c(-c4ccc5nc(C)oc5c4)c[nH]c3n2)c(OC)c1 | > 7.50
Nc1ccn(C2OC(CO)C(O)C2(F)F)c(=O)n1 (stereo not given) + CNC(=O)c1ccc(Nc2nc(OC3CCCC3)c3c(-c4ccc5nc(C)oc5c4)c[nH]c3n2)c(OC)c1 | > 7.50
CC(=O)O[C@H]1C(=O)[C@@]2(C)[C@H]([C@H](OC(=O)c3ccccc3)[C@]3(O)C[C@H](OC(=O)[C@H](O)[C@@H](NC(=O)c4ccccc4)c4ccccc4)C(C)=C1C3(C)C)[C@]1(OC(C)=O)CO[C@@H]1C[C@@H]2O + CN1CCN(c2cc(C(=O)Nc3cc4cc(-c5cnn(C)c5)ccc4cn3)ccn2)CC1 | > 7.50
C=C(F)C(=O)N1CCN(c2nc(OCC3CCCN3C)nc3c2CCN(c2cccc4cccc(Cl)c24)C3)CC1CC#N (stereo not given) + CNC(=O)c1ccc(Nc2nc(OC3CCCC3)c3c(-c4ccc5nc(C)oc5c4)c[nH]c3n2)c(OC)c1 | 7.39
CCc1c2c(nc3ccc(O)cc13)-c1cc3c(c(=O)n1C2)COC(=O)[C@]3(O)CC + CN1CCN(c2cc(C(=O)Nc3cc4cc(-c5cnn(C)c5)ccc4cn3)ccn2)CC1 | > 8.50
CCN1CCN(Cc2ccc(Nc3ncc(F)c(-c4cc(F)c5nc(C)n(C(C)C)c5c4)n3)nc2)CC1 + CN1CCN(c2cc(C(=O)Nc3cc4cc(-c5cnn(C)c5)ccc4cn3)ccn2)CC1 | > 8.50
Nc1ccccc1NC(=O)c1ccc(CNC(=O)OCc2cccnc2)cc1 + CN1CCN(c2cc(C(=O)Nc3cc4cc(-c5cnn(C)c5)ccc4cn3)ccn2)CC1 | > 7.50
C=CC(=O)Nc1cc(Nc2nccc(-c3cn(C)c4ccccc34)n2)c(OC)cc1N(C)CCN(C)C + CN1CCN(c2cc(C(=O)Nc3cc4cc(-c5cnn(C)c5)ccc4cn3)ccn2)CC1 | > 9.02
CCCS(=O)(=O)Nc1ccc(F)c(C(=O)c2c[nH]c3ncc(-c4ccc(Cl)cc4)cc23)c1F + CN1CCN(c2cc(C(=O)Nc3cc4cc(-c5cnn(C)c5)ccc4cn3)ccn2)CC1 | > 7.50
